This section presents binders with their documented koff values.
Molecular target: T1, mouse recombinant ADAMTS5 (mouse, UniProt Q9R001 262-622, limits assumed)
T1 construct: in house, HEK293, His tag in the entry
T1 sequence: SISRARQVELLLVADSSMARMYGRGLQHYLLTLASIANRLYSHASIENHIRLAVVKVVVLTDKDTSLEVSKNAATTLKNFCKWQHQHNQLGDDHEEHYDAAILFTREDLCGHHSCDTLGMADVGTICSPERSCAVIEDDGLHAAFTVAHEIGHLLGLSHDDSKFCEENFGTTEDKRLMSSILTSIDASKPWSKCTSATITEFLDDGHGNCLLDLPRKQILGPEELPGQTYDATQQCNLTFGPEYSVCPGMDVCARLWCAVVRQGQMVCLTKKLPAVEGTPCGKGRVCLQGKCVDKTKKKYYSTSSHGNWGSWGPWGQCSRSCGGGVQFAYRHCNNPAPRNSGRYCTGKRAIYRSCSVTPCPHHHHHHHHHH
Assay: SPR off-rate, Biacore T100, ADAMTS5 immobilised, experiment 2
Your answer should be a plain number; it is taken to be in s⁻¹.

Illustrative cases are given below, each with its answer.
BINDER	UNIT_DESCRIPTOR	koff
Nanobody 2A12 (VHH, tagged as tested (anti-Flag detection, IMAC); also called 02A12) VHH: EVQLVESGGGLVQAGGSLRLSCAASGRTFSSYAMGWFRQAPGKERDFVAGISRSAGRTYYVDSVKGRFTISRDSAKNTVYLQMNRLKPEDTAVYYCAADLDPNRIFSRDEAAYWGQGTLVTVSS	s⁻¹	0.00044
Nanobody 3D01 (VHH, tagged as tested (anti-Flag detection, IMAC); also called 03D01) VHH: EVQLVESGGGLVQAGGSLRLSCAPSGFTFSPYYMGWFRQAPGKERDFVAAISRSRGTTYYLDSTEGRFTISRDNANDTVYLQMNSLNPEDTAVYYCAAGRSPGDPSRTYLYDYWGQGTLVTVSS	s⁻¹	0.00064
Nanobody 2D07 (VHH, tagged as tested (anti-Flag detection, IMAC); also called 02D07; 2D7) VHH: EVQLVESGGGLVQAGGSLRLSCSFSGPGRTFARYAMGWFRQAPGKNRDFITGISGSGDSTYYVYPMKDRFTISRDNAKNMVYLQMNALKPEDTAVYYCAADREINRIANDKELDFWGQGTLVTVSS	s⁻¹	0.0018

Let us examine a further case.
Requested read-out: koff. Entry: Nanobody 2F03 (VHH, tagged as tested (anti-Flag detection, IMAC); also called 02F03; 2F3) VHH: EVQLVESGGGLVQAGGSLRLSCAASGRTVSSYAMGWFRLAPGKEREFVAGISRSAERTYYVDSLKGRFTISRDSAKNTVYLHMNRLKPEDTAVYYCAADLDPNRIFSREEYAYWGQGTLVTVSS 0.00029

Values from patent US20200317802A1
